Test system: Tetranychus urticae
Assay comment: Insecticidal/acaricidal test, Tetranychus urticae (spider mites - adult), contact
Type: in vivo
Particulars: 72 h, 100 ppm, French bean leaf, 3 days, read-out: grading of mortality, TU
Description: The activity of the Product was determined using a variety of insect and acarine pests. The Product was used in the form of liquid preparations containing 500, 250 or 100 parts per million (ppm) by weight of the Product. The preparations were made by dissolving the Product in acetone and diluting the solutions with water containing 0.01% by weight of a wetting agent sold under the trade name "LISSAPOL" NX until the liquid preparations contained the required concentratio of the Product. […]
molecules and their reported mortality at 100 ppm
Test readout: mortality at 100 ppm

Molecule	Test readout	Test value
FC(F)(F)Oc1ccc(C(Cl)(COCc2cccc(Oc3ccc(Cl)cc3)c2)C(F)(F)F)cc1 (centres unmarked)	mortality at 100 ppm	< 50%
FC(F)(F)Oc1ccc(C(Cl)(COCc2cccc(Oc3ccccc3)c2)C(F)(F)F)cc1 (centres unmarked)	mortality at 100 ppm	80 to 100%
FC(F)(F)Oc1ccc(C(COCc2cccc(Oc3ccccc3)c2)C(F)(F)F)cc1 (centres unmarked)	mortality at 100 ppm	80 to 100%
CCOc1ccc(C(COCc2cccc(Oc3ccccc3)c2)C(F)(F)F)cc1F (centres unmarked)	mortality at 100 ppm	< 50%
Fc1ccc(COC=C(c2ccc(OC(F)(F)F)cc2)C(F)(F)F)cc1Oc1ccccc1	mortality at 100 ppm	< 50%
FC(F)(F)Oc1ccc(C(COCc2cccc(Oc3ccccc3)n2)C(F)(F)F)cc1 (centres unmarked)	mortality at 100 ppm	< 50%
CCOc1ccc(C(COCc2cccc(Oc3ccc(Cl)cc3)c2)C(F)(F)F)cc1F (centres unmarked)	mortality at 100 ppm	< 50%
FC(F)(F)Oc1ccc(C(Cl)(COCc2cccc(Oc3ccccc3)n2)C(F)(F)F)cc1 (centres unmarked)	mortality at 100 ppm	80 to 100%

Data provenance: patent US5225607A
